Where do the numbers come from? From the supplement of paper PMC7125110.

Measured kcat, listed per entry for reference.
B1: glmS ribozyme (parent)
chain: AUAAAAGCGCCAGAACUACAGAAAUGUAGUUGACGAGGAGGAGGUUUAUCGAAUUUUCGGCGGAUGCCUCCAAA

- Variants of: B1
- protocol-details: kcat; higher = faster cleavage; RNA array
- setup-conditions: with glucosamine-6-phosphate
Fewer inactive variants are shown than the library holds.
Please respond with the number in s⁻¹ and leave the unit unwritten.

Use these answered entries as a reference point.
AUAAAAGCGCCAGAGCUACAGAAAUGUAGUUGUCGAGGAGGAGGUUUAUCGAAUUUUCGGCGGAUGCCUCCAAA [A15G A33U] = 0.0001
AUAAAAGCGCCCGAACUACAGAAAUGUAGUUGACGAGGAGGUGGUUUAUCGAAUUUUCGGCGGAUGCCUCCAAA [A12C A42U] = 0.000217
AUAAAAGCGCCAGAAUUACAGAAAUGUAGCUGACGAGGAGGAGGUUUAUCGAAUUUUCGGCGGAUGCCUCCAAA [C16U U30C] = 7.72e-05
AUAAAAGCGCCAGAACUACAGAAAUGUAGUUGACGAGGAGGAGGUUUAUCGAAUUUUCGGCGGGUUCCUCCAAA [A64G G66U] = 0.00159
AUAAAAGCGCCAGAACUACAGAAAUGUAUUUGACGAGGAGGAGGUUUAUCGAAUUUUCGGCGGAUGCCGCCAAA [G29U U69G] = 5.24e-05

## Input Read off the recorded kcat for AUAAAAGCGCCAGAACUACAGAAAUGUAGUUGACGAGGAGGAGGUUUAUCGAAUUUUCGGCGGAUAUCUCCAAA [G66A C67U]
## Output 0.00255

## Input Read off the recorded kcat for AUAAAAGCGCCGGAACUACAGAAAUGUAGUUUACGAGGAGGAGGUUUAUCGAAUUUUCGGCGGAUGCCUUCAAA [A12G G32U C70U]
## Output 0.00103

## Input Read off the recorded kcat for AUAAAAGCGCCAGAACUACAGAAAUGUAGUUGACGAGGAGGAGAUUUAUCGAACUUUCGGCGGAUGCCUCCAAA [G44A U54C]
## Output 0.00159
